B1: Calcium-binding protein 2, residues 155 to 219; numbered along this chain, Q9NPB3 (parent)
chain: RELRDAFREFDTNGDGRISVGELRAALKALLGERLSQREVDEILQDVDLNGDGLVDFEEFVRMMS

- Variants of: B1
- experiment: abundance fitness (aPCA) (normalised: wild type 0, dead -1); higher = more abundant; growth selection in yeast, the domain comes from the species named
- conditions: Homo sapiens
observable: abundance fitness
Please state the value as a number alone, without comment.

Some variants with known abundance fitness results, for comparison:
>>> test_value("E2A")
-0.509
>>> test_value("V55S")
-0.394
>>> test_value("G16I")
-1.2
>>> test_value("A29K")
0.066
>>> test_value("E58K")
0.102
>>> test_value("T12W")
-0.538
>>> test_value("N13D")
-0.019
>>> test_value("D56M")
-0.262
>>> test_value("S36A")
0.041
>>> test_value("V20M")
0.066

[in] Report abundance fitness for N50V please.
[out] -0.254

[in] Report abundance fitness for G21A please.
[out] 0

[in] Report abundance fitness for L44G please.
[out] -0.01

[in] Report abundance fitness for I18T please.
[out] -0.763

[in] Report abundance fitness for G14M please.
[out] -0.308

[in] Report abundance fitness for D52K please.
[out] -0.094

Data credit: the Human Domainome abundance scans (Beltran et al. 2025)
